Listing: pIC50 of selected compounds
Target chain: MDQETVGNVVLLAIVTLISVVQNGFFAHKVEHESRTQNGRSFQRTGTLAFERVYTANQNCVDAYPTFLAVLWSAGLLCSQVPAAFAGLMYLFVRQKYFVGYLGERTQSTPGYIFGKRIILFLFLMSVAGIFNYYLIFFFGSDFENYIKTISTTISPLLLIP
In plain terms, pIC50 is the concentration in mol/L turned into minus its base-10 logarithm.

Worked examples, 5 compounds total:
Supply recorded pIC50 for COc1cncc(-c2ccc(C(C)(c3ccc(-c4noc(C5(N)CC5)n4)cn3)C(C)C)cc2)c1 (centres unmarked) here.
8.44

Supply recorded pIC50 for COC(=O)c1ccc(-c2ccc(C(C)(c3ccc(OCc4ccccn4)cc3)C(C)C)nc2)nn1 (centres unmarked) [Example 10Ah] here.
9.15

Supply recorded pIC50 for CC(C)C(C)(c1ccc(-c2ccc(N)nn2)cc1)c1ccc(-c2ccc(C(C)(C)O)nn2)cn1 (centres unmarked) here.
9.22

Supply recorded pIC50 for COc1cncc(-c2ccc(C(C)(c3ccc(-c4noc(C(C)(C)O)n4)cn3)C(C)C)cc2)c1 (centres unmarked) here.
8.68

Supply recorded pIC50 for CC(C)C(C)(c1ccc(-c2cncc(OCF)c2)cc1)c1ccc(-c2ccc(C(F)(F)F)nn2)cn1 (centres unmarked) here.
8.55

Continuing:
Supply recorded pIC50 for CC(C)C(C)(c1ccc(OCc2ccccn2)cc1)c1ccc(-c2ccc(C(C)(C)O)nn2)cn1 (centres unmarked) [Example 10Aj] here.
9.15

Supply recorded pIC50 for CC(C)(C)C(c1ccc(OCc2ccccn2)cc1)c1ccc(-c2nnc(N)o2)cn1 (centres unmarked) here.
8.24

Supply recorded pIC50 for CC(C)C(C)(c1ccc(OCc2nccs2)cc1)c1ccc(-c2noc(C(C)(C)O)n2)cn1 (centres unmarked) [Example 10Ca] here.
8.54
